# Tgt: T1, human CDH6 (full-length and EC domain deletion mutants) (Homo sapiens, UniProt P55285)
# T1 construct: each one of the five EC domains could be deleted from full-length human CDH6; 3xFLAG (deletion mutants only, from the vector p3×FLAG-CMV-9); expressed in transfected cells; host or cells: 293α cells
# T1 sequence (P55285 54-790): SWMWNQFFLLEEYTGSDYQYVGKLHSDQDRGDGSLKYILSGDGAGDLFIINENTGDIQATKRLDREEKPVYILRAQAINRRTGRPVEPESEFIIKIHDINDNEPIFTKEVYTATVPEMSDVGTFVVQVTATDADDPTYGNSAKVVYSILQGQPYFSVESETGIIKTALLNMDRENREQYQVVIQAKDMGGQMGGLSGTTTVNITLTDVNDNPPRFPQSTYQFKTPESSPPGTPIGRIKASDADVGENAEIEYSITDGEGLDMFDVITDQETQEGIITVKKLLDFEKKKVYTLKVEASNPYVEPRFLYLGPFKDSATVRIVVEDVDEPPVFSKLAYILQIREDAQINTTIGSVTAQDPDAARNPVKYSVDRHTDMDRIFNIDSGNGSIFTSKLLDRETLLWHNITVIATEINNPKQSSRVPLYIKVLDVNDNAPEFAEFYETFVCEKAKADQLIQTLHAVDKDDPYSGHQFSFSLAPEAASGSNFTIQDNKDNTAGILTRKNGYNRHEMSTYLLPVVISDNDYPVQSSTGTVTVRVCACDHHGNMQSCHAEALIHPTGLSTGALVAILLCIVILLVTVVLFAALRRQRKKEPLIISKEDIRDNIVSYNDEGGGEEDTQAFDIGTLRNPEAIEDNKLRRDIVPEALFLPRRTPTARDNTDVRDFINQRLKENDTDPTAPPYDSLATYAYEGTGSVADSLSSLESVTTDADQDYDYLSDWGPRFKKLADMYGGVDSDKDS
# Test Name: Epitope analysis of rat anti-CDH6 antibody by flow cytometry using domain deletion mutants
# Assay type: binding
# Experimental Parameters: flow cytometry; transfected 293α cells; antibody 20 nM
# Protocol: The full-length extracellular region of human CDH6 has five extracellular domains, EC1 (SEQ ID NO: 2), EC2 (SEQ ID NO: 3), EC3 (SEQ ID NO: 4), EC4 (SEQ ID NO: 5), and EC5 (SEQ ID NO: 6). […] The epitopes to which the rat anti-human CDH6 antibodies bound were identified by flow cytometry analysis using a 293α cell line transfected with each EC domain deletion vector. […] The data was analyzed using FlowJo (Tree Star, Inc.). […]

>  <Molecule>
rG061: rat anti-human CDH6 monoclonal antibody produced by hybridoma rG061; variable regions SEQ ID NO: 40 and 45 (antibody, listed as Rattus norvegicus, V domains shown) VL: DVQMTQSPSYLAASPGESVSISCKATKSISNYLAWYQQKPGEAYKVLIYSGSTLQSGTPSRFSGSGSGTDFTLTIRSLEPEDFGLYSCQQYYEKPLTFGSGTKLEIKRA VH: EVQLQESGPGLVKPSQSLSLTCSVTGYSITTYYWGWIRKFPGNKMEWMGYISYSGRTSYNPSLKSRMSITRDASKNQFFLQLNSVTTDDTATYYCARSPINHGGYWYFDFWGPGTMVTVSS

>  <binding to full-length hCDH6>
bind

$$$$

Values compiled from patent US20240390512A1.
